- System: K4 kissing-loop RNA reporter
- measurementNotes: apparent KD of K4 kissing-loop reporter; higher = weaker reporter binding
- setupConditions: Eterna round: R107; input ligand: theophylline 20 uM
measuredQuantity: apparent KD of K4 kissing-loop reporter (nM)
Supply the numeric figure in nM, leaving out any unit text.

Answered cases to consult:
sequenceChain	apparent KD of K4 kissing-loop reporter, nM
UGAUACCAGACGGCCGCCACUCCCGUAAGUCAAAGACUUACGAAGAGGGUUUUUCAGUGAUGUUGGAGGACCGGGUCUGGUAUCU [FiskerMod 17 - Jieux - Exclusion - Tryptophan B]	506
GCCUAGCAGCGAAGGAGCGCCAGGAGAAGAAAUGGAGAGAGUUGAGUGAUGUUCAAAUGGUGGCAGGUAGGUCGCGCUGCUAGGC [#08 K4 Arginine B Same State]	444
AUGUCUUAUAAACUCGUGGUUUCGAUCGAUACCAGUAGCGAGAGUUACCCUUGGCAGCGACAUGAGUGAUGUUCAUGUACGAAGA [KL-XTheoA4]	90.2
CUCGUGGGUUUGAGAGGGCUUGUGGGAAGUGAGGAUAUUUAGGGAGGGAGAAGGUACUAUAGAAUAUAGUGAUGUUAUAUAUGGG [SSFMNA.U]	111
GCAGUCCGGACGGCCGCCACUAUCCGUAAAGUGAUGUUUUACGAACAAUCGAUUGCAUAUCAGAAUAGGACCGGGUCCGUCGACC [theeternabot_sameState_KL_Trp_B_15]	170
CAUGUGUCUAUUACGAUGGAUACAUAUACUGAGGAUAUCACAUUUAUGAGAAGGCAGUAAACUGCGAGUGAUGUUCGCAGUACGU [FMN A SS t8]	316

Per the record, GGGAGUAGUGCGGCCGCCACUGUGAAAGUAGAAGAAUAUAGUGAUGUUAUAUAGGAACAAAAGAAUAGGACCGGGCAUUAGAUUU [SSTRyptB.X] has apparent KD of K4 kissing-loop reporter of 299

Quick note, apparent KD of K4 kissing-loop reporter for AAUGUACAAGUGAUGUUUGUACUUUCCGAAGGAGCGUCUAAUAAGACAGGUAGGUCGCGGAUACUCUAAAUAAUCAGGUCAUUGA [#06 K4 Arginine A Exclusion] landed at 80.6

Given item UGACUGGAUUGAAGGAGCGCUAAACUCCUAGUGAUGUUAGGGACACGAGACAAAGUCUCGAGGCAGGUAGGUCGCAAUCUAGUCU [FiskerMod 6 - Jieux - Same State - Arginine B] , the value recorded as its apparent KD of K4 kissing-loop reporter is 296

apparent KD of K4 kissing-loop reporter for GUUACGCAUGGAAGGAGCGCAGGCUCAACAAAUAGCUCAGUGAUGUUGAGCAAAUUAAAACUGCAGGUAGGUCGCCAUGUGUAAC [Ex Arginine B K4 22] is 371

----------
- System: K4 kissing-loop RNA reporter;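 further: bound reporter read as fluorescence of individual clusters on recovered sequencing chips by microscopy, with normalized cluster intensities fitted with a binding model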
- measurementNotes: apparent KD of K4 kissing-loop reporter; higher = weaker reporter binding
- setupConditions: Eterna round: R107; input ligand: FMN 200 uM
measuredQuantity: apparent KD of K4 kissing-loop reporter
The number alone won't do; follow it with the unit.

Consider the following illustrative entries.
sequenceChain	testSystem	apparent KD of K4 kissing-loop reporter
AGUGCACUGUCAGGAUAUAUACAGUGAUGUUGUGUAUGUCAGCAAGUCAAAGACUUGCUUUUCUGUGUAGAAGGGACUGUGUACA [Omei KL FMN B Exc A v2]	K4 kissing-loop RNA reporter	387 nM
UGACUGGAUUGAAGGAGCGCUAAACUCCUAGUGAUGUUAGGGACACGAGACAAAGUCUCGAGGCAGGUAGGUCGCAAUCUAGUCU [FiskerMod 6 - Jieux - Same State - Arginine B]	K4 kissing-loop RNA reporter	309 nM
AGAGUACGAAAGUACUCCUCUACACACUGCCGAGGACCGGUACGGCCGCCACUCGAGUUGAGUGAUGUUCGACAGUGUGUAGAGA [Omei KL Tryp A SS C v2]	K4 kissing-loop RNA reporter	114 nM
AAAUAAGCUCAUGAUACCAGCCAGUGAUGUUGGUUGGUCCACCGUGUCCGAACAUUAAGCGGCCCUUGGCAGCAUGAUGCGCGUA [Xearxea]	K4 kissing-loop RNA reporter	125 nM
AUACAGCGACGCGCUAGUGAUGUUAGCGAAGGAGCGACUCAUGAGUCAGGUAGGUCGCGCUAACGUGGUUACGAGAGUAACCAGU [Arg A Ex t1a]	K4 kissing-loop RNA reporter	93.3 nM

Proceed to the following item.
# apparent KD of K4 kissing-loop reporter of AGUAGUUGGACGGCCGCCACUGGAACAGCUUUGCCAAAGGCAGAGCACUAGAGUGAUGUUCUAGCUAGGACCGGGUCCAACUACA [whbob_SS_Tryp_B_t16] = 338 nM

Data provenance is the supplement of paper PMC9170038.
